Would you kindly list pIC50 for each of these compounds?
biological target: DNA-dependent protein kinase catalytic subunit (Homo sapiens); test: DNA-PK Enzyme Inhibitory Assay
Sequence (P78527 whole entry): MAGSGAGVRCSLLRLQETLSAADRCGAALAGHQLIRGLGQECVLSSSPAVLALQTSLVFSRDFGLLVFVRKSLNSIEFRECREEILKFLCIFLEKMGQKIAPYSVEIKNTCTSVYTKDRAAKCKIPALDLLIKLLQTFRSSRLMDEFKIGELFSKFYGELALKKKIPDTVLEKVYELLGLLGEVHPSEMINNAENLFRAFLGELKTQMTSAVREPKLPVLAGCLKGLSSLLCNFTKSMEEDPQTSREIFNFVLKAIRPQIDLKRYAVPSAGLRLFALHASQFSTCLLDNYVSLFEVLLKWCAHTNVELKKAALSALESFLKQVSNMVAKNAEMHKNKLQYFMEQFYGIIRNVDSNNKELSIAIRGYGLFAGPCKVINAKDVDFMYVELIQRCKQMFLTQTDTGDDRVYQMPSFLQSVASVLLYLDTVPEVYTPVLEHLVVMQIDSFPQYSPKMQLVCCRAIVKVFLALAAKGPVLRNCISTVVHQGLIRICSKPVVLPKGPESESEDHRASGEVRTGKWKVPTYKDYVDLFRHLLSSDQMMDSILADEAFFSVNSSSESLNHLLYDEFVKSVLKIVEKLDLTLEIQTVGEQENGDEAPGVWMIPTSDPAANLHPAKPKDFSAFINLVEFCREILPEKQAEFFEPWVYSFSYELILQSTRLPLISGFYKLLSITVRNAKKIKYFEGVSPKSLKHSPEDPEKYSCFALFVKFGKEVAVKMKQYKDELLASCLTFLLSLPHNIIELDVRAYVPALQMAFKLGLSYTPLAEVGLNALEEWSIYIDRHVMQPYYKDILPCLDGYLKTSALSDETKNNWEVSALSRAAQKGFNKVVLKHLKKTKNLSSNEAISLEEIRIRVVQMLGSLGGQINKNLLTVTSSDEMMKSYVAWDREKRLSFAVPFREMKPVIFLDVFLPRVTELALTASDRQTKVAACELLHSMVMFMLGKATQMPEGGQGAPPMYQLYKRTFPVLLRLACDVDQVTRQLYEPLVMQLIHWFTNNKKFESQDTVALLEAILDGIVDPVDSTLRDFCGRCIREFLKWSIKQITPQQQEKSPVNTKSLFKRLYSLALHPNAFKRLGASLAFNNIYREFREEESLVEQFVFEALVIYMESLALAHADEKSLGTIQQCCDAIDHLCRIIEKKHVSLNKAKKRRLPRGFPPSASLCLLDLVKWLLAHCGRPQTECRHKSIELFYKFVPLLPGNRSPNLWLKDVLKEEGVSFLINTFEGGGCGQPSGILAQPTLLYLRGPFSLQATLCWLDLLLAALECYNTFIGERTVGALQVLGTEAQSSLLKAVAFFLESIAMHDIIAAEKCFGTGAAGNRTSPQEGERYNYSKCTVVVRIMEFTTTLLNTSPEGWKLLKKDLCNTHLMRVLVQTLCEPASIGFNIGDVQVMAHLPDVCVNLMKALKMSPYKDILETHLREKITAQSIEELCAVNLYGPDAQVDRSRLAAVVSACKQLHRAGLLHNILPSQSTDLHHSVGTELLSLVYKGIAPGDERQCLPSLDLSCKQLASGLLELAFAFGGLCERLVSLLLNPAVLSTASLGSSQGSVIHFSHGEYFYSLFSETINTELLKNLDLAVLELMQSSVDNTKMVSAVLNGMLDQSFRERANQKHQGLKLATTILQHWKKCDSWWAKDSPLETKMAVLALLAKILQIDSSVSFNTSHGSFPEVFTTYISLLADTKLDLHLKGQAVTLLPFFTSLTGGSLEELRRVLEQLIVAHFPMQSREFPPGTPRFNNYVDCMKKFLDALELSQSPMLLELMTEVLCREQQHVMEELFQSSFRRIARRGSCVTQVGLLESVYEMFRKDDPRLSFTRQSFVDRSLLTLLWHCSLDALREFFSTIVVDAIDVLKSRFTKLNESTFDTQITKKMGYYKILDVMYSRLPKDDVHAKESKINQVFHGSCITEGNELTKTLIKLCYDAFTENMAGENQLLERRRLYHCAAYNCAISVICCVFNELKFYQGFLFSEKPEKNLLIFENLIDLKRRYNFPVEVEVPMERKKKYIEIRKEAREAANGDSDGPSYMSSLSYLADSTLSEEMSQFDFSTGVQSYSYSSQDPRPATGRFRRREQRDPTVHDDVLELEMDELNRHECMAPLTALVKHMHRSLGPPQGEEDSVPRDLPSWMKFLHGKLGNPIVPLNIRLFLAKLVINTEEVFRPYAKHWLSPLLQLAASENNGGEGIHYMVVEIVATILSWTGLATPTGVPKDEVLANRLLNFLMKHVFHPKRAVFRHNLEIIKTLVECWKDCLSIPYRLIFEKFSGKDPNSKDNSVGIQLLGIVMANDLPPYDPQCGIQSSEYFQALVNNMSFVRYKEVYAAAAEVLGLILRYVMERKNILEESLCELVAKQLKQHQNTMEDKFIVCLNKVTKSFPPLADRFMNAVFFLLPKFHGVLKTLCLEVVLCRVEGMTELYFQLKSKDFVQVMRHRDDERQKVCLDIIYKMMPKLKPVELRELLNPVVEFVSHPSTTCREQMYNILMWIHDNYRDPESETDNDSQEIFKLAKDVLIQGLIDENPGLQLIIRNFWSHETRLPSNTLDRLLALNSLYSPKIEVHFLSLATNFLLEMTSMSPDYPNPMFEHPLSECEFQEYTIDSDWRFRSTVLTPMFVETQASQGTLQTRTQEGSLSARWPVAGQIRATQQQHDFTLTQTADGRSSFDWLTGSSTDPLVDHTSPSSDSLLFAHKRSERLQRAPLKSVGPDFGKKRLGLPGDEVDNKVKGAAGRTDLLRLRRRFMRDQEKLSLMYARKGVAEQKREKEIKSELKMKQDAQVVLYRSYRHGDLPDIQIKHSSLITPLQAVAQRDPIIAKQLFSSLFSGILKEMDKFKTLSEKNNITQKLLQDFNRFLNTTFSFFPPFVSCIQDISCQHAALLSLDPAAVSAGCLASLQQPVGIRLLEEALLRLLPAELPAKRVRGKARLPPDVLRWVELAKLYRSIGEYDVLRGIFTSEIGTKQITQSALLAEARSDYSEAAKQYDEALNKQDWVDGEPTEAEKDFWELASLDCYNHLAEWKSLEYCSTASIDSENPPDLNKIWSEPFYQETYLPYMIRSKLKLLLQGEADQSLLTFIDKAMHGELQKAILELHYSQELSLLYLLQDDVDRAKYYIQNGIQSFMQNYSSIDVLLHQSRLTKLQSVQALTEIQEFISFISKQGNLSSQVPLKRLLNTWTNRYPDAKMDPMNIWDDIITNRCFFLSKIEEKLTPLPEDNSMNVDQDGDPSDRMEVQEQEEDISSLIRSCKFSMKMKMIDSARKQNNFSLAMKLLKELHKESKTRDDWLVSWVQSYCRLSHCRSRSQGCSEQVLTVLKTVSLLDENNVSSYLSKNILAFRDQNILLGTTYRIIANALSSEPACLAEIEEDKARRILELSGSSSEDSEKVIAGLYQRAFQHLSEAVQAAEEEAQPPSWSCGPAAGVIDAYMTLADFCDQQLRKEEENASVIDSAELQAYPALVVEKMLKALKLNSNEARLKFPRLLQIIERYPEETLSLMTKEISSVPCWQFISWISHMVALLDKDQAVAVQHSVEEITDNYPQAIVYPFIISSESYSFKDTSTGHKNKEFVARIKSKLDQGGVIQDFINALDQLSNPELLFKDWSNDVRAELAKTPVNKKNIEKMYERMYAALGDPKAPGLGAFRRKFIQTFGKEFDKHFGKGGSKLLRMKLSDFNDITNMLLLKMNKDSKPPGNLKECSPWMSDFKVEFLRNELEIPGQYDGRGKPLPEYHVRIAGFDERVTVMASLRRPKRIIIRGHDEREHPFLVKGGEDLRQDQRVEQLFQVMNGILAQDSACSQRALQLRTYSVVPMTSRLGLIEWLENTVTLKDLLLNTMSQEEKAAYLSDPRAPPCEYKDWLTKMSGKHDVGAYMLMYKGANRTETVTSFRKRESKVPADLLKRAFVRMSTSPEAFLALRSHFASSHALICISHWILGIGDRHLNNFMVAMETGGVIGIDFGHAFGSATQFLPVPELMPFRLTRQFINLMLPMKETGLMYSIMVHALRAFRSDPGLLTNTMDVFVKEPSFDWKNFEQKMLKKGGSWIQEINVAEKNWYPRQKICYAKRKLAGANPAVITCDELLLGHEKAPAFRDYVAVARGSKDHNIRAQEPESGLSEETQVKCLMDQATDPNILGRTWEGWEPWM
Give bare numbers, as −log10 of the molar value.

Take a look at these entries with their results.
Cc1c(OCC(=O)Nc2ccc(S(N)(=O)=O)cc2)ccc2c(=O)nc(N3CCOCC3)oc12
4.40
Cc1c(OCC(=O)Nc2ccc(S(=O)(=O)Nc3ccccn3)cc2)ccc2c(=O)nc(N3CCOCC3)oc12
6.60
CC(=O)NS(=O)(=O)c1ccc(NC(=O)COc2ccc3c(=O)nc(N4CCOCC4)oc3c2C)cc1
4.46

# map each compound to its pIC50
1. Cc1c(OCC(=O)NCc2ccc(Cl)cc2)ccc2c(=O)nc(N3CCOCC3)oc12
2. COc1ccc(CNC(=O)COc2ccc3c(=O)nc(N4CCOCC4)oc3c2C)cc1
3. Cc1c(OCC(=O)N[C@@H](C)C(=O)O)ccc2c(=O)nc(N3CCOCC3)oc12
4. Cc1c(OCC(=O)Nc2ccc(S(=O)(=O)Nc3nccs3)cc2)ccc2c(=O)nc(N3CCOCC3)oc12
5. Cc1c(OCC(=O)NCc2ccc(F)cc2)ccc2c(=O)nc(N3CCOCC3)oc12

A:
5.00
4.82
4.00
5.46
5.40

Reference source: BindingDB's records for doi:10.7270/Q2930S2V
